Data provenance is patent US20080132539A1.

- System: Maillard reaction (lysozyme / fructose, dimer formation)
- ASSAY COMMENT: Maillard reaction-inhibiting effects (lysozyme dimer formation with fructose, SDS-PAGE densitometry)
- Format: biochemical
- ASSAY CONDITIONS: test compound concentration 1 mM; 10 mg/mL lysozyme, 200 mM fructose, pH 7.4, 37° C., 4 days; dimer formation inhibition rate
ENDPOINT NAME: Maillard reaction-inhibiting activity (%)

[[record]]
compound = "CC(C)Cn1c(CC[C@H](N)C(=O)NO)nc2ccccc21 [Compound No. 72]"
value_reported = 100

[[record]]
compound = "N[C@@H](CCCNC(=O)c1ccc([N+](=O)[O-])cc1)C(=O)NO [Compound No. 15]"
value_reported = 43

[[record]]
compound = "NC(Cc1cn(Cc2ccc(F)c(F)c2)c2ccccc12)C(=O)NO (racemic) [Compound No. 108]"
value_reported = 104

[[record]]
compound = "CC(C)(C)c1ccc(NC(=O)CC[C@H](N)C(=O)NO)cc1 [Compound No. 2]"
value_reported = 100

[[record]]
compound = "NC(Cc1c[nH]c2ccccc12)C(=O)NO (centres unmarked) [Compound No. 113, tryptophan hydroxamate]"
value_reported = 99

[[record]]
compound = "COC(=O)Nc1ccc(C[C@H](N)C(=O)NO)cc1 [Compound No. 36]"
value_reported = 69

[[record]]
compound = "CCCn1c(CC[C@H](N)C(=O)NO)nc2cc(C)c(C)cc21 [Compound No. 94]"
value_reported = 100

[[record]]
compound = "N[C@@H](CCc1nc2ccccc2n1Cc1ccc(F)cc1)C(=O)NO [Compound No. 73]"
value_reported = 98

[[record]]
compound = "N#Cc1ccc(Cn2cc(CC(N)C(=O)NO)c3ccccc32)cc1 (racemic) [Compound No. 107]"
value_reported = 101

[[record]]
compound = "CCCn1c(CC[C@H](NCC2CCCCC2)C(=O)NO)nc2ccccc21 [Compound No. 97]"
value_reported = 98

[[record]]
compound = "N[C@@H](CCCNC(=O)CC1CCCCC1)C(=O)NO [Compound No. 19]"
value_reported = 95


----------
This listing pairs compounds with measured Maillard reaction-inhibiting activity (%).
- System: Maillard reaction (lysozyme / fructose, dimer formation)
- ASSAY COMMENT: Maillard reaction-inhibiting effects (lysozyme dimer formation with fructose, SDS-PAGE densitometry)
- Type: biochemical
- ASSAY CONDITIONS: test compound concentration 0.3 mM; 10 mg/mL lysozyme, 200 mM fructose, pH 7.4, 37° C., 4 days; dimer formation inhibition rate
- Procedure: This Example examined Maillard reaction-inhibiting effects using, as test compounds, the compounds produced in the above-described Examples and the commercially available substances arginine hydroxamate (Compound No. 111), tyrosine hydroxamate (Compound No. 112), and tryptophan hydroxamate (Compound No. 113). […] After the incubation, the samples were subjected to SDS-PAGE, stained with Coomassie Brilliant Blue R-250, and quantitated for the formed dimmers using a densitometer. […]
ENDPOINT NAME: Maillard reaction-inhibiting activity (%)

[[record]]
compound = "CC(C)Cn1c(CC[C@H](N)C(=O)NO)nc2ccccc21"
value_reported = 94

[[record]]
compound = "N[C@@H](CCCNC1CCCCC1)C(=O)NO"
value_reported = 7

[[record]]
compound = "N[C@@H](Cc1cn(Cc2c(F)c(F)c(F)c(F)c2F)c2ccccc12)C(=O)NO"
value_reported = 97

[[record]]
compound = "N[C@@H](CCCNC(=O)CC1CCCCC1)C(=O)NO"
value_reported = 54

[[record]]
compound = "CCCn1c(CC[C@H](N)C(=O)NO)nc2cc(Cl)c(Cl)cc21"
value_reported = 106

[[record]]
compound = "CC(C)(C)Cn1c(CC[C@H](N)C(=O)NO)nc2ccccc21"
value_reported = 97

[[record]]
compound = "N[C@@H](Cc1ccc(OCc2ccccc2-c2ccccc2)cc1)C(=O)NO"
value_reported = 96

[[record]]
compound = "CCCCCn1cc(C[C@H](N)C(=O)NO)c2ccccc21"
value_reported = 105

[[record]]
compound = "Cc1ccc(C(=O)Nc2ccc(C[C@H](N)C(=O)NO)cc2)cc1"
value_reported = 74

[[record]]
compound = "CC(C)(C)c1ccc(NC(=O)CC[C@H](N)C(=O)NO)cc1"
value_reported = 100

[[record]]
compound = "CC(C)(C)C(=O)Nc1ccc(C[C@H](N)C(=O)NO)cc1"
value_reported = 50

[[record]]
compound = "N[C@@H](Cc1ccc(OCc2ccc(F)cc2F)cc1)C(=O)NO"
value_reported = 88

[[record]]
compound = "CCCn1c(CC[C@H](NCC2CCCCC2)C(=O)NO)nc2ccccc21"
value_reported = 98

[[record]]
compound = "CC(C)(C)c1ccc(Cn2c(CC[C@H](N)C(=O)NO)nc3ccccc32)cc1"
value_reported = 99

[[record]]
compound = "N=C(N)NN [Aminoguanidine, reference compound]"
value_reported = "−5"

[[record]]
compound = "NC(Cc1c[nH]c2ccccc12)C(=O)NO (stereo not drawn) [Compound No. 113, tryptophan hydroxamate]"
value_reported = 76

[[record]]
compound = "COC(=O)Nc1ccc(C[C@H](N)C(=O)NO)cc1"
value_reported = 33

[[record]]
compound = "CCCN(CCC)CCC[C@H](N)C(=O)NO"
value_reported = 6

[[record]]
compound = "N[C@@H](CCCNC(=O)c1ccc([N+](=O)[O-])cc1)C(=O)NO"
value_reported = "−2"

[[record]]
compound = "CN(C)NC(=O)c1ccc(C[C@H](N)C(=O)NO)cc1"
value_reported = 16

[[record]]
compound = "N[C@@H](CCC(=O)NCC(c1ccccc1)c1ccccc1)C(=O)NO"
value_reported = 97

[[record]]
compound = "CCCCCn1cc(CC(N)C(=O)NO)c2ccccc21 (racemic)"
value_reported = 97

[[record]]
compound = "N#Cc1ccc(COc2ccc(C[C@H](N)C(=O)NO)cc2)cc1"
value_reported = 95

[[record]]
compound = "CCCN(CCC)c1ccc(C[C@H](N)C(=O)NO)cc1"
value_reported = 100

[[record]]
compound = "N[C@@H](Cc1ccc(OCc2ccc([N+](=O)[O-])cc2)cc1)C(=O)NO"
value_reported = 102

[[record]]
compound = "N#Cc1ccc(Cn2cc(CC(N)C(=O)NO)c3ccccc32)cc1 (racemic)"
value_reported = 100

[[record]]
compound = "CC(C)(C)c1ccc(Cn2cc(CC(N)C(=O)NO)c3ccccc32)cc1 (racemic)"
value_reported = 95

[[record]]
compound = "N[C@@H](CCc1nc2ccccc2n1Cc1ccc(F)cc1)C(=O)NO"
value_reported = 98

[[record]]
compound = "CC(C)(C)c1ccc(COc2ccc(C[C@H](N)C(=O)NO)cc2)cc1"
value_reported = 95

[[record]]
compound = "CCCn1c(CC[C@H](N)C(=O)NO)nc2cc(C)c(C)cc21"
value_reported = 83

[[record]]
compound = "N[C@@H](CCc1nc2ccccc2n1C1CCCCC1)C(=O)NO"
value_reported = 100

[[record]]
compound = "Cc1ccc(CN(CCC[C@H](N)C(=O)NO)Cc2ccc(C)cc2)cc1"
value_reported = 100

[[record]]
compound = "NC(N)=NCCC[C@H](N)C(=O)NO [Compound No. 111, arginine hydroxamate]"
value_reported = 17

[[record]]
compound = "N[C@@H](CCc1nc2ccccc2n1C1CCOCC1)C(=O)NO"
value_reported = 65

[[record]]
compound = "N[C@@H](Cc1ccc([N+](=O)[O-])cc1)C(=O)NO"
value_reported = 49

[[record]]
compound = "N[C@@H](CCCNC(=O)Cc1ccc([N+](=O)[O-])cc1)C(=O)NO"
value_reported = 11


----------
- Tested on: Maillard reaction (lysozyme / fructose, dimer formation)
- ASSAY COMMENT: Maillard reaction-inhibiting effects (lysozyme dimer formation with fructose, SDS-PAGE densitometry)
- Type: biochemical
- ASSAY CONDITIONS: test compound concentration 1 mM; 10 mg/mL lysozyme, 200 mM fructose, pH 7.4, 37° C., 4 days; dimer formation inhibition rate
ENDPOINT NAME: Maillard reaction-inhibiting activity (%)

[[record]]
molecule = "N[C@@H](Cc1ccc(OCc2ccc(F)cc2F)cc1)C(=O)NO [Compound No. 102]"
value_reported = "94%"

[[record]]
molecule = "CCCCC(=O)Nc1ccc(C[C@H](N)C(=O)NO)cc1 [Compound No. 31]"
value_reported = "100%"

[[record]]
molecule = "N[C@@H](CCC(=O)NCC(c1ccccc1)c1ccccc1)C(=O)NO [Compound No. 6]"
value_reported = "103%"

[[record]]
molecule = "N[C@@H](Cc1ccc([N+](=O)[O-])cc1)C(=O)NO [Compound No. 40]"
value_reported = "96%"

[[record]]
molecule = "CCCCCN(CCCCC)CCC[C@H](N)C(=O)NO [Compound No. 26]"
value_reported = "68%"

[[record]]
molecule = "N[C@@H](Cc1ccc(NC(=O)Cc2ccc(F)cc2)cc1)C(=O)NO [Compound No. 33]"
value_reported = "98%"

[[record]]
molecule = "N[C@@H](CCc1nc2ccccc2n1C1CCOCC1)C(=O)NO [Compound No. 76]"
value_reported = "95%"

[[record]]
molecule = "N[C@@H](CCC(=O)NC1CCCCC1)C(=O)NO [Compound No. 5]"
value_reported = "35%"

[[record]]
molecule = "CCCN(CCC)c1ccc(C[C@H](N)C(=O)NO)cc1 [Compound No. 38]"
value_reported = "100%"

